The entries below are paired with their reported inhibition at 10 µM.
test system: Aorta; assay: Vasorelaxant activity in potassium depolarized guinea pig aortic strip assessed as inhibition of calcium-induced contraction at 10^-5 M; format: functional; details: Cavia porcellus

Guide cases for inhibition at 10 µM, answers given:
structure_string=C=CCOC(=O)C1=C(C)NC(C)=C(C(=O)OCC=C)C1c1ccc(C(C)(C)C)cc1 value_observed=12%
structure_string=C=CCOC(=O)C1=C(C)NC(C)=C(C(=O)OCC=C)C1/C=C/c1ccccc1OC value_observed=1%
structure_string=CCOC(=O)C1=C(C)NC(C)=C(C(=O)OCC)C1c1c(-c2ccccc2)nc2sc(C)cn12 value_observed=5%

Note: attention shifts to another entry.
Identify the reported inhibition at 10 µM for the following entry. CCOC(=O)C1=C(C)NC(C)=C(C(=O)OCC)C1c1cccc(Oc2ccccc2)c1
17%
